molecular target: GST-Bcl-2 (Homo sapiens, UniProt P10415); test: TR-FRET binding assay, GST-Bcl-2 with F-Bak peptide probe; details: TR-FRET Binding Affinity, GST-Bcl-2, F-Bak peptide probe
Sequence (P10415 whole entry): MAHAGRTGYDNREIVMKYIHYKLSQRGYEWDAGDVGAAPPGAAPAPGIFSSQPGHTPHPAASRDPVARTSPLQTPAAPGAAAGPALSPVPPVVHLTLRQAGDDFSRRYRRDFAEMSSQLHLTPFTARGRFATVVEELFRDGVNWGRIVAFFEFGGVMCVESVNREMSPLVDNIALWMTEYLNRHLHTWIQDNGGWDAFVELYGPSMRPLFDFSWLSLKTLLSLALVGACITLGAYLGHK
pKi: −log10 of the molar value.

Compound	pKi
COCCNC(=O)c1ccc(S(=O)(=O)NC(=O)c2ccc(N3CCN(CC4=C(c5ccc(Cl)cc5)CC(C)(C)CC4)CC3)cc2Oc2ccc3[nH]ccc3c2)cc1	7.90
CC1(C)CCC(CN2CCN(c3ccc(C(=O)NS(=O)(=O)c4cnc(O[C@@H]5CCN(CC(F)F)C5)c(Cl)c4)c(Oc4cccc5[nH]ncc45)c3)CC2)=C(c2ccc(Cl)cc2)C1	10.15
CC1(C)CCC(CN2CCN(c3ccc(C(=O)NS(=O)(=O)c4ccc(NN5CCOCC5)c([N+](=O)[O-])c4)c(Oc4ccc5[nH]ccc5c4)c3)CC2)=C(c2ccc(Cl)cc2)C1	8.96
O=C(NS(=O)(=O)c1ccc(NCCCN2CCCC2)c([N+](=O)[O-])c1)c1ccc(N2CCN(Cc3cc(OCCN4CCOCC4)ccc3-c3ccc(Cl)cc3)CC2)cc1Oc1ccc2[nH]ccc2c1	9.59
CN1CCC(O)(CNc2ccc(S(=O)(=O)NC(=O)c3ccc(N4CCN(CC5=C(c6ccc(Cl)cc6)CC(C)(C)CC5)CC4)cc3Oc3ccc4[nH]ccc4c3)cc2[N+](=O)[O-])CC1	10.41
CN1CCC(Nc2ccc(S(=O)(=O)NC(=O)c3ccc(N4CCN(CC5=C(c6ccc(Cl)cc6)CC(C)(C)CC5)C(CO)C4)cc3Oc3ccc4[nH]ccc4c3)cc2[N+](=O)[O-])CC1 (stereo not shown)	9.88
CC1(C)CCC(CN2CCN(c3ccc(C(=O)NS(=O)(=O)c4ccc(NC5CCN(Cc6nccs6)CC5)c([N+](=O)[O-])c4)c(Oc4ccc5[nH]ccc5c4)c3)CC2)=C(c2ccc(Cl)cc2)C1	8.05
CC1(C)CCC(CN2CCN(c3ccc(C(=O)NS(=O)(=O)c4ccc(OCC5CCOCC5)c(C(N)=O)c4)c(Oc4ccc5[nH]ccc5c4)c3)CC2)=C(c2ccc(Cl)cc2)C1	8.87
CN1CCC(CNc2ccc(S(=O)(=O)NC(=O)c3ccc(N4CCN(CC5=C(c6ccc(Cl)cc6)CC(C)(C)CC5)CC4)cc3Oc3ccc4[nH]ccc4c3)cc2[N+](=O)[O-])(N(C)C)CC1	9.79
CC1(C)CCC(CN2CCN(c3ccc(C(=O)NS(=O)(=O)c4ccc(NC5(CO)CCOCC5)c([N+](=O)[O-])c4)c(Oc4cccc5[nH]ccc45)c3)CC2)=C(c2ccc(Cl)cc2)C1	8.22

----------
biological target: GST-Bcl-XL (Homo sapiens, UniProt Q07817); test: TR-FRET binding assay, GST-Bcl-XL with F-Bak peptide probe; details: TR-FRET Binding Affinity, GST-Bcl-XL, F-Bak peptide probe
Sequence (Q07817 whole entry): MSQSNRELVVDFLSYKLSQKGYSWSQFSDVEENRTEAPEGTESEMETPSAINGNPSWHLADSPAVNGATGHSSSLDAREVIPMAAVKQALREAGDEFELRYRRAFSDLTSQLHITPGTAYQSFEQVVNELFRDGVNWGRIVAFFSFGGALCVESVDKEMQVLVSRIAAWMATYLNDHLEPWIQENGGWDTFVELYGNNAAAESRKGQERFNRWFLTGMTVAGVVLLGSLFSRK
pKi: −log10 of the molar value.
Endpoint: pKi

Compound	Value Observed
CC1(C)CCC(CN2CCN(c3ccc(C(=O)NS(=O)(=O)c4ccc(NCC5CCS(=O)(=O)C5)c([N+](=O)[O-])c4)c(Oc4cccc5[nH]ccc45)c3)CC2)=C(c2ccc(Cl)cc2)C1 (stereo not shown)	< 6.18
CN(C)CCCNc1ccc(S(=O)(=O)NC(=O)c2ccc(N3CCN(Cc4ccccc4-c4ccc(Cl)cc4)CC3)cc2Oc2ccccc2)cc1C(F)(F)F	6.46
CC1(C)CCC(CN2CCN(c3ccc(C(=O)NS(=O)(=O)c4ccc(NCC5CCS(=O)(=O)CC5)c([N+](=O)[O-])c4)c(Oc4cccc5[nH]ccc45)c3)CC2)=C(c2ccc(Cl)cc2)C1	< 6.18
CC1(C)CCC(CN2CCN(c3ccc(C(=O)NS(=O)(=O)c4ccc(NCCC#N)c([N+](=O)[O-])c4)c(Oc4cccc5[nH]ccc45)c3)CC2)=C(c2ccc(Cl)cc2)C1	6.89
CC1(C)CCC(CN2CCN(c3ccc(C(=O)NS(=O)(=O)c4ccc(NC[C@H]5CC[C@H](O)CC5)c([N+](=O)[O-])c4)c(Oc4ccc5[nH]ccc5c4)c3)CC2)=C(c2ccc(Cl)cc2)C1	< 6.18
CN1CCC(Nc2ccc(S(=O)(=O)NC(=O)c3ccc(N4CCN(CC5=C(c6ccc(Cl)cc6)CC(C)(C)CC5)CC4)cc3Oc3ccc4[nH]ccc4c3)cc2[N+](=O)[O-])CC1	< 6.18
CC1(C)CCC(CN2CCN(c3ccc(C(=O)NS(=O)(=O)c4ccc(CCC5OCCO5)c([N+](=O)[O-])c4)c(Oc4ccc5[nH]ccc5c4)c3)CC2)=C(c2ccc(Cl)cc2)C1	< 6.18
CC1(C)CCC(CN2CCN(c3ccc(C(=O)NS(=O)(=O)c4ccc(NC(CO)C5CCOCC5)c([N+](=O)[O-])c4)c(Oc4ccc5[nH]ccc5c4)c3)CC2)=C(c2ccc(Cl)cc2)C1 (stereo not shown)	< 6.18
CN1CCC(Nc2ccc(S(=O)(=O)NC(=O)c3ccc(N4CCN(Cc5cc(OCCO)ccc5-c5ccc(Cl)cc5)CC4)cc3Oc3cccc4[nH]ccc34)cc2[N+](=O)[O-])CC1	6.77
COCCNc1ccc(S(=O)(=O)NC(=O)c2ccc(N3CCN(CC4=C(c5ccc(Cl)cc5)CC(C)(C)CC4)CC3)cc2Oc2ccc3[nH]ccc3c2)cc1[N+](=O)[O-]	< 6.18
